Cited source: paper PMC12254379

# experimental_target: rhPRDX2 (PRDX2) (Homo sapiens, UniProt P32119)
# Construct: pET28a His-tagged, expressed in E. coli Rosetta, His-purified; decamer in docking model; endogenous protein of U2932 lysate in the Biotin-ART pull-down
# Sequence (P32119 2-198): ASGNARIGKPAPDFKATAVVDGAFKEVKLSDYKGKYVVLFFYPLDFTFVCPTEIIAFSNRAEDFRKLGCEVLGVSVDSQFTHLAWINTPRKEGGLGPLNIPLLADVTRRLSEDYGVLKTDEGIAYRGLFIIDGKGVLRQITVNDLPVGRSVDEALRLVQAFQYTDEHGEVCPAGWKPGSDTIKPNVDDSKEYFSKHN
# measurement_protocol: intrinsic fluorescence titration, Hill plot
pKd: −log10 of the molar value.

{"molecule": "C[C@H]1[C@H](OC(=O)CCC(=O)O)O[C@@H]2O[C@@]3(C)CC[C@H]4[C@H](C)CC[C@@H]1[C@@]24OO3 [Artesunate]", "experimental_target": "rhPRDX2 (PRDX2) (Homo sapiens, UniProt P32119)", "pKd": 5.28}
